Data provenance: the supplement of paper PMC9170038

- Tested on: K4 kissing-loop RNA reporter;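 also: bound reporter read as fluorescence of individual clusters on recovered sequencing chips by microscopy, with normalized cluster intensities fitted with a binding model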
- ASSAY PROTOCOL: apparent KD of K4 kissing-loop reporter; higher = weaker reporter binding
- MEASUREMENT CONTEXT: Eterna round: R107; input ligand: none
REPORTED PROPERTY: apparent KD of K4 kissing-loop reporter (nM)
Give just the numeric value; nM need not be written.

>  <SEQUENCE TEXT>
CCGGACACCUCGGAUACCAGCCUGAGUGAUGUUCAAGCUGAACUCUCUUAAUAGGUCACCGGCCCUUGGCAGCCGCAUCCUAAGC [theeternabot_exclusion_KL_Theo_B_46]

>  <apparent KD of K4 kissing-loop reporter [nM]>
353

$$$$
>  <SEQUENCE TEXT>
AGAUUCGACACGGCCGCCACUCGUGGAUCUUGGUUGAGAGAUGAAAUAGAGUGAUGUUCUAAUACGAGGACCGGGUGUUGAGUCU [KL-SSTryp-B23]

>  <apparent KD of K4 kissing-loop reporter [nM]>
200

$$$$

Kindly consider the entry below.
Prompt: Lab note: need apparent KD of K4 kissing-loop reporter with K4 kissing-loop RNA reporter for entry UAUAUAGUGACGGCCGCCACUAUAUUAAUGUUUAGGUUAGAGUGAUGUUUUGAUUAAUAUUUUUAUAGGACCGGGUUAUAUGUUA [xerrmullin] , please look it up.
Completion: 511

---

- Tested on: MS2 coat protein
- ASSAY PROTOCOL: apparent KD of MS2 coat protein, switch ON state; designed switch direction (-1 OFF switch, 1 ON switch): -1; higher = weaker reporter binding
- MEASUREMENT CONTEXT: FMN input: 0 or 200 uM; Eterna round: R93 (includes R88 designs)
We use 0.03 µM as the dividing line for apparent KD of MS2 coat protein: on or above the line is true, below is false.

Look over these answered cases.
>  <SEQUENCE TEXT>
CUCUUGUCAGGAUAUUCAAGAAAAGAAGAGAAAGAAAAGAAGAAGAAGGGACAUGAGGAUCACCCAUGUAAGAA [EteRNA is fun!]

>  <CATEGORY LABEL>
true

$$$$
>  <SEQUENCE TEXT>
AACAGACAUGAGGAUCACCCAUGUAAGGAUAUCCAAAACGAUAAAACAAGAAUGACAGGGAGAAGGUACAGCAA [JR_Exc001_Sub007]

>  <CATEGORY LABEL>
true

$$$$
>  <SEQUENCE TEXT>
AACAAGACAGGAUAUACAUGAGGAUCACCCAUGUCACAAUAAAGCAGCGCAACACAAAGUAGAAGGGUCAUGGA [Ruby 10]

>  <CATEGORY LABEL>
true

$$$$
>  <SEQUENCE TEXT>
AAAAAACAUGAGGAUCACCCAUGUAAGGAUAUCUAAAAUAAAAGAAAAAUAAAGAAAAGGAGAAGGUAUAUGAA [JL wbt mod 20]

>  <CATEGORY LABEL>
false

$$$$
>  <SEQUENCE TEXT>
GGUUGGCAAGGAUAUACAUGAGGAUCACCCAUGUGAGAGAAAAAAGUGAGAAAGAAAAGUAGAAGGUGUUGACG [salish99-ex3-75]

>  <CATEGORY LABEL>
false

$$$$

Please examine the following record next.
Prompt: Identify whether the reported apparent KD of MS2 coat protein of the following sequence is 0.03 µM or greater: AAGAACAGAGGAUAUACAUGAGGAUCACCCAUGUAAAAGAAAGAAAGGGAAAAGAAAAGUAGAAGGCUGAAGAA [Neferkare Heqawaset Amenemnisu]
Completion: true
